Hey, just so you know, these numbers are from the supplement of paper PMC11577813.

- Test system: myrcene A-neuron OSN class
- Experiment: net action potential response of A-neuron (blank-subtracted) (spikes/s (Hz)); higher = stronger excitation
- Settings: 10 µg on filter paper; neuron: A neuron (large spike amplitude)
Readout name: net action potential response
Response field accepts a number only; no unit should be typed.

-- ask Lookup: net action potential response / myrcene A-neuron OSN class / CC(=O)OCc1ccccc1 [Benzyl acetate]
-- reply -4

-- ask Another molecule: C=C(C)[C@@H]1CC=C(C)CC1 [(-)-Limonene]
-- reply 6

-- ask Same lookup for `CC(=O)CC/C=C(\C)CCC=C(C)C` , please.
-- reply -2

-- ask Then C=CC(O)CCCCC (racemic) [(±)-1-Octen-3-ol] ?
-- reply 2
